Data origin: patent US7541018B2

Could you please report measured IC50 for the items listed next?
Bridge positions count the residues as written; N and C are the ends. Square brackets hold non-standard residues; d marks the D form. Peptide text beside a SMILES is read from it. * marks the point of attachment. DOTA = O=C(O)CN1CCN(CC(=O)O)CCN(CC(=O)*)CCN(CC(=O)O)CC1; dDab = NCC[C@@H](N)C(=O)O; GABA = NCCCC(=O)O
Numbers only; they are read as nM.

Under human sst4 (Homo sapiens): IC50 value of C[C@@H](O)[C@@H]1NC(=O)[C@H](CCCCN)NC(=O)[C@@H](Cc2c[nH]c3ccccc23)NC(=O)[C@H](Cc2ccc(O)cc2)NC(=O)[C@H](Cc2ccccc2)NC(=O)[C@H](CCCNC(=N)N)NC(=O)[C@H](N)CCNC(=O)[C@H](Cc2ccccc2)NC1=O [A with X4 is Tyr] (H-[dDab]RFY[dW]KTF; lactam 1-C) ?
1

Under human sst4 (Homo sapiens): IC50 value of C[C@@H](O)[C@@H]1NC(=O)[C@H](CCCCN)NC(=O)[C@@H](Cc2c[nH]c3ccccc23)NC(=O)[C@H](Cc2ccccc2)NC(=O)[C@H](Cc2ccccc2)NC(=O)[C@H](CC(N)=O)NC(=O)CCCNC(=O)[C@H](Cc2ccccc2)NC1=O [minisomatostatin, reference compound] (cyclo(FF[dW]KTF[GABA]N)) ?
15.3

Under human sst4 (Homo sapiens): IC50 value of C[C@@H](O)[C@@H]1NC(=O)[C@H](CCCCN)NC(=O)[C@@H](Cc2c[nH]c3ccccc23)NC(=O)[C@H](Cc2ccccc2)NC(=O)[C@H](Cc2ccccc2)NC(=O)[C@H](CCCNC(=N)N)NC(=O)[C@H](NC(=O)CN2CCN(CC(=O)O)CCN(CC(=O)O)CCN(CC(=O)O)CC2)CCNC(=O)[C@H](Cc2ccccc2)NC1=O [A, Z = DOTA] ({DOTA}-[dDab]RFF[dW]KTF; lactam 1-C) ?
0.9
